These measurements were taken from patent US9018214B2.

target: BIR3 domain of human cIAP-1 (residues 267-363) (Homo sapiens (Human)); assay: cIAP-1 in vitro competitive displacement binding assay (fluorescence polarization; Probe A AVPIK(5&6FAM)-amide or Probe B AbuRPFK(5&6FAM)-amide); settings: 3 h; Probe B, @ 0.012 μM; read-out: IC50 or PI cIAP1: PI
Counter-ions that a name gives are not always drawn.
Endpoint label: inhibition at […] (%)

Sample records with inhibition at […]:
# Compound, Target or test system, inhibition at […], %
rows = [
    ("COC[C@H]1CN[C@H](C)CN1CC(=O)N1CC(C)(C)c2c[n+]([O-])c(Cc3ccc(F)cc3F)cc21 [Example 166, hydrochloride]", "BIR3 domain of human cIAP-1 (residues 267-363) (Homo sapiens (Human))", 76),
    ("C[C@@H]1CN(CC(=O)N2CC(C)(C)c3cnc(Cc4ccccc4F)cc32)[C@@H](CN2CCOC[C@H]2C)CN1 [Example 244, hydrochloride]", "BIR3 domain of human cIAP-1 (residues 267-363) (Homo sapiens (Human))", 98),
    ("CCCC(F)(F)c1cc2c(cn1)C(C)(C)CN2C(=O)CN1C[C@@H](C)NC[C@@H]1CN1CCCC1=O [Example 227, hydrochloride]", "BIR3 domain of human cIAP-1 (residues 267-363) (Homo sapiens (Human))", 78),
]

A = C[C@@H]1CN(CC(=O)N2CC(C)(C)c3cnc(Cc4ccc(F)cc4)cc32)[C@@H](CN2CCOCC2)CN1 [Example 237, hydrochloride]
B = CCCC(F)(F)c1cnc2c(c1)N(C(=O)CN1C[C@@H](C)NC[C@@H]1CN1CC[C@@H](F)C1)CC2(C)C [Example 223, hydrochloride]
Task item: Which of the two gives a bigger number for inhibition at […]: A or B ? Mark your selection by writing its label.
Reply: A

###

molecular target: BIR3 domain of human cIAP-1 (residues 267-363) (Homo sapiens (Human), UniProt Q13490); experiment: cIAP-1 in vitro competitive displacement binding assay (fluorescence polarization; Probe A AVPIK(5&6FAM)-amide or Probe B AbuRPFK(5&6FAM)-amide); details: Probe A AVPIK(5&6FAM)-amide; read-out: IC50 or PI cIAP1: IC50
pIC50: −log10 of the molar value. Structures can show the parent of a compound that is named as a salt.
Endpoint label: pIC50

# Compound, Numeric readout
records = [
    ("C[C@@H]1CN(CC(=O)N2CCc3ccc(OC(F)(F)F)cc32)CCN1 [Example 28, hydrochloride salt]", 4.38),
    ("C[C@@H]1CN(CC(=O)N2CCc3ccc(S(=O)(=O)N4CCCC4)cc32)CCN1 [Example 37, hydrochloride salt]", 4.64),
    ("CC(C)c1ccc2c(c1)N(C(=O)CN1CCN[C@H](C)C1)CC2", 4.20),
]

a = C[C@@H]1CN(CC(=O)N2CCc3cnc(-c4cc(Cl)ccc4F)cc32)CCN1 [Example 38, hydrochloride salt]
b = C[C@@H]1CN(CC(=O)N2CC(C)(C)c3ccc(Cl)cc32)[C@@H](CO)CN1 [Example 40, hydrochloride salt]
Task item: Between a and b , which one shows the smaller pIC50 number? Mark your selection by writing its label.
Reply: a

I = C[C@@H]1CN(CC(=O)N2CCc3cc(Br)c(S(=O)(=O)N(C)C)cc32)CCN1 [Example 26, hydrochloride salt]
II = C[C@@H]1CN(CC(=O)N2CCc3cc(F)c(S(=O)(=O)c4ccccc4)cc32)CCN1
Task item: Which of the two gives a bigger number for pIC50: I or II ? Mark your selection by writing its label.
Reply: II
(II: 5.89, I: 4.57)

a = C[C@@H]1CN(CC(=O)N2CCc3cc(F)c(-c4ccccc4)cc32)CCN1 [Example 24, hydrochloride salt]
b = CNS(=O)(=O)c1cc2c(cc1Br)CCN2C(=O)CN1CCN[C@H](C)C1 [Example 25, hydrochloride salt]
c = C[C@@H]1CN(CC(=O)N2CCc3ccc(Cl)cc32)CCN1
Task item: Order the records by pIC50, with each subsequent value no larger than the one before. Write out the labels following the order that was asked for.
Reply: a, c, b
(a: 5.70, c: 4.54, b: 4.22)
